test: Human HepG2 cell viability assay in 384 well format; format: toxicity, cell-based; set-up: dose 125 nL, time 70.5 hour; concentration not given beside the values; settings: HepG2 cells, read-out: Inhibition
measured-parameter: cytotoxicity at 70.5 h (%)
Answers are plain numbers, in %.

Look over these answered cases.
| compound | cytotoxicity at 70.5 h / % |
| --- | --- |
| CCn1nc(CC(C)C)cc1C(=O)NCCCOC | -0.898 |
| CSc1ccccc1C(=O)N(C)Cc1nncn1C(C)C | -0.541 |
| Cc1ccc(S(C)(=O)=O)cc1C(=O)NS(C)(=O)=O | -7.69 |
| Cc1nc(CNCC2CN(C)CCO2)cs1 (stereo unspecified) | -4.42 |
| CCc1nc(Cn2c(=O)n(CC)c3ccccc32)no1 | -7.55 |

Batch: cytotoxicity at 70.5 h for all items listed.
1. C=C(C)CN(CC)C(=O)c1cc(Cl)ccc1NS(C)(=O)=O
2. CCN(CC)S(=O)(=O)c1ccc(C(F)(F)F)cc1C#N
3. Cc1ccc2c(c1)C(N1CCOCC1)CC21CCNCC1 (stereo unspecified)
4. Cc1oc(-c2nc(C#N)c(N(C)C)o2)cc1S(=O)(=O)N1CCCC1
5. Cc1cc(CNC2(c3ccc(Cl)cc3)CC2)no1
6. CCC(C)c1noc(C2CCN(C(=O)Cn3nc(C)cc3C)CC2)n1 (stereo unspecified)
7. c1ccc2c(Cc3nnc([C@H]4CCN(C5CCCCC5)C4)o3)c[nH]c2c1
8. c1cnnc(N[C@@H]2CC[C@@H]3CN(Cc4c[nH]c5ccccc45)C[C@@H]32)c1

[reply]
-0.344
-8.21
-8.36
-21.5
-2.02
-5.55
-0.596
4.96

---

assay: Human HepG2 cell viability assay in 384 well format; type: toxicity, cell-based; design: dose 125 nL, time 70.5 hour; concentration not given beside the values; settings: HepG2 cells, read-out: Inhibition
measured-parameter: cytotoxicity at 70.5 h (%)
Numbers only, in %.

# annotated cases, reported cytotoxicity at 70.5 h shown
| molecule | cytotoxicity at 70.5 h / % |
| --- | --- |
| CCCc1cc(CNC2CCN(c3nc4ccccc4s3)CC2)on1 | -6.6 |
| CS(=O)(=O)N1CCc2ncc(CNC(=O)C3CCC3)n2CC1 | -1.87 |
| Cc1cnn(C2CCCN(C(=O)c3cccc4c3OCO4)C2)c1 (stereo unspecified) | -10.4 |
| CCN(C(=O)c1ccc2nnc(C3CCN(CCOC)C3)n2c1)C(C)C (stereo unspecified) | -13.6 |
| Fc1cnc(N2CCCC3(CN(Cc4ccncc4)CCO3)C2)nc1 (stereo unspecified) | -6.32 |

The following molecules each have a reported value; give each one's cytotoxicity at 70.5 h.
1. c1cc(-c2cnccn2)cc(-c2ccn(CCCN3CCCCC3)n2)c1
2. O=c1[nH]c2c(c(=O)n1C1CCCCC1)CCC2NCCc1ccccc1 (stereo unspecified)
3. c1ccc2ncc(CC3CCNC3)cc2c1 (stereo unspecified)
4. Cc1ccc(C(=O)N2CCSCC2)cc1NC(=O)NCC1CCC1
5. COc1cc(C2SCC(=O)Nc3[nH]ncc32)cc(OC)c1OC (stereo unspecified)
6. NC(=O)c1ccc(NC(=O)c2ccncc2F)cn1
7. O=C1CN(C(=O)[C@H]2CC[C@]3(CC2)CNC(=O)c2ccccc2O3)CCN1
8. N#Cc1ccc(C(=O)N2CCCC3(C=Cc4ccccc4O3)CC2)cn1 (stereo unspecified)

[reply]
1. -7.3
2. -17.4
3. 19.8
4. -7.96
5. -5.35
6. 10.3
7. -8.28
8. 7.89

Please go through the list and note cytotoxicity at 70.5 h for each molecule.
1. CC(C)CCN1CCN(C(=O)c2cccnc2-n2cncn2)CC1
2. COc1ccc(-c2cn[nH]c2)cc1CNC1CCCC1
3. Cc1nccc(C2CCCN(S(=O)(=O)N3CCOCC3)C2)n1 (stereo unspecified)
4. CC(C)c1noc(CCCC(=O)N2CCN(Cc3ccsc3)CC2)n1
5. Cc1noc([C@@H]2CC[C@@H]3[C@@H](CCN3S(=O)(=O)c3cccnc3)O2)n1
6. CCN1CC2(CCCCN2C(=O)C2CCCCC2)CC1=O (stereo unspecified)

[reply]
-3.48
-19.5
19.2
-6.21
-4.36
-7.76

---

Field: cytotoxicity at 70.5 h. Provide a value for each of the compounds that follow.
test: Human HepG2 cell viability assay in 384 well format; assay type: toxicity, cell-based; design: dose 125 nL, time 70.5 hour; concentration not given beside the values; details: HepG2 cells, read-out: Inhibition
Give bare numbers, in %.

The examples below pair each entry with its known result.
| line-notation | test-result |
| --- | --- |
| Cc1cc(CNS(=O)(=O)CCCC#N)ccc1N(C)C | 0.915 |
| Cn1nc(-c2ccc(Cl)cc2)c(Br)c1C(=O)O | -23.3 |
| O=C(NC1CCN(c2ncccn2)CC1)c1cc2c(cc1O)CCCC2 | 6.37 |

Let us examine a further case.
[ask] Look up cytotoxicity at 70.5 h: CC(C)(CNC(=O)C(C)(C)Oc1ccc2c(c1)CCCC2=O)C(N)=O
[reply] 0.471

---

Hi there, I'd appreciate the recorded cytotoxicity at 70.5 h for every entry that follows.
assay: Human HepG2 cell viability assay in 384 well format; assay type: toxicity, cell-based; design: dose 125 nL, time 70.5 hour; concentration not given beside the values; conditions: HepG2 cells, read-out: Inhibition
One number for each entry, in %.

Check out these entries, answers already filled in.
| compound | test-result |
| --- | --- |
| CN1CCN(C(=O)c2cc(NC(=O)c3ccccc3)n(C)n2)CC1 | -12.7 |
| Cc1nccn1-c1ccc(C(C)NCc2cc[nH]n2)cc1 (stereo not given) | -0.399 |
| CC(C)(C)c1nc(CN2CCC3(CCCO3)CCC2=O)no1 (stereo not given) | -5.98 |
| Cn1c(CN2CCCC2)nnc1C1CCCN(C(=O)C2CCOCC2)C1 (stereo not given) | -3.01 |

[ask] // lookup cytotoxicity at 70.5 h for Cc1c(C(=O)O)oc2ccc(I)cc12
[reply] -5.09

---

assay: Human HepG2 cell viability assay in 384 well format; assay type: toxicity, cell-based; parameters: dose 125 nL, time 70.5 hour; concentration not given beside the values; details: HepG2 cells, read-out: Inhibition
measured-parameter: cytotoxicity at 70.5 h (%)
Answers are plain numbers, in %.

Reference set, count: 5
| molecule | cytotoxicity at 70.5 h, % |
| --- | --- |
| CC1CCN(c2ncc3c(n2)CN(c2ccc(F)cc2)C3=O)CC1 | -2.02 |
| CNS(=O)(=O)CC(=O)N(C1CCCC1)C1CC1 | -12.4 |
| COc1ccccc1CN1C[C@@H](F)[C@@H](OCc2nc3ccccc3[nH]2)C1 | -0.935 |
| Cc1ncsc1CCN(C)C(=O)CN1C(=O)OC[C@@H]1c1ccccc1 | 4.46 |
| O=C(c1cc(=O)[nH]c(=O)[nH]1)N1CCCCC1c1ccc(F)cc1 (configuration not stated) | -6.94 |

Give one value of cytotoxicity at 70.5 h per listed molecule.
1. CC(C)NC(=O)Cn1cc(-c2ccccc2)ncc1=O
2. CS(=O)(=O)N1CCC2(CC1)CC(CC(=O)NC1CC1)c1ccccc12 (configuration not stated)

[reply]
1. -7.17
2. -20.3

---

Exercise: for every item that follows, state its recorded cytotoxicity at 70.5 h.
experiment: Human HepG2 cell viability assay in 384 well format; format: toxicity, cell-based; parameters: dose 125 nL, time 70.5 hour; concentration not given beside the values; conditions: HepG2 cells, read-out: Inhibition
Give bare numbers, in %.

Examples with their reported cytotoxicity at 70.5 h follow.
| compound | unit-abbrev | cytotoxicity at 70.5 h |
| --- | --- | --- |
| Cc1cccc(CN2C[C@@H]3CN(C(=O)c4ccsc4)C[C@@H]3C2=O)c1 | % | -5.57 |
| CNC(=O)[C@@H]1C[C@H]2CN(C(=O)c3ccco3)C[C@H]2N1C(C)C | % | -10.2 |
| Nc1cc(C(=O)N2CCOC(Cc3cccc(C(F)(F)F)c3)C2)ccn1 (stereo not given) | % | -7.49 |
| C[C@@H]1CN(Cc2cccnc2)C[C@]12CCN(CCN1CCCC1)C2=O | % | -4.97 |
| CNC(=O)[C@@H]1CN(C(=O)CCOC)C[C@H]1c1ccnc(N2CCCC2)n1 | % | -4.83 |

I have 3 compounds here; please give me cytotoxicity at 70.5 h for each one.
1. Nc1ccc(C(=O)N2CCCC(C(=O)CCc3ccccc3)C2)cn1 (stereo not given)
2. CCc1nc(CN2CCCCC2C(N)=O)cs1 (stereo not given)
3. COc1cccc(OCCCc2cncc(C(N)=O)c2)c1

[reply]
[-20, -2.28, -13.7]

---

assay: Human HepG2 cell viability assay in 384 well format; assay type: toxicity, cell-based; parameters: dose 125 nL, time 70.5 hour; concentration not given beside the values; details: HepG2 cells, read-out: Inhibition
Task for the reader: assign each of the following compounds its reported cytotoxicity at 70.5 h.
Answers are plain numbers, in %.

| compound | test-result |
| --- | --- |
| CCS(=O)(=O)N1CCCC(c2nccn2Cc2ccccn2)C1 (stereo not given) | -2.1 |
| CC(C)c1nc(C2CCCN(C(=O)CN3CCN(C)CC3)C2)no1 (stereo not given) | -7.22 |
| CN(CC(=O)Nc1ccccc1C(=O)NC1CC1)Cc1ccccc1Cl | 0.515 |
| Fc1ccc(CNCCn2cccn2)c(Cl)c1 | 6.68 |
| CCOCc1nn(CC2CC2)c2c1CN(C(=O)c1ccno1)CC2 | -7.44 |

Please state, for each entry, its recorded cytotoxicity at 70.5 h.
1. O=C(NCCNCc1cccc2c1OCCCO2)C1CCCC1
2. CCOCCC(=O)Nc1ccnn1-c1ccc(Cl)cc1
3. CC(C)n1ccnc1CN1CCCN(C(=O)c2cscn2)CC1
4. O=C(c1ccnnc1)N1CCN(Cc2cccnc2)c2ncccc2C1

[reply]
1: 14.5; 2: -3.17; 3: -2.53; 4: -8.62
